target: 4'-phosphopantetheinyl transferase ffp (Bacillus subtilis); assay: qHTS Assay for Inhibitors of Bacillus subtilis Sfp phosphopantetheinyl transferase (PPTase); details: Biochemical Sfp PPTase activity;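 also: the enzyme is Sfp with the accession as filed and its product quenches rhodamine fluorescence; 0% = enzyme reaction without inhibitor and -100% = no enzyme wells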
Out of some 310,000 compounds screened, about 11,000 (3.5%) were called active. Not shown: some 4% with an inconclusive outcome. Shown is part of a subset that was picked to be rich in actives.
property_label: largest response in the series, negative = inhibition (%)

compound: CCCCC[C@H](O)/C=C/[C@@H]1[C@@H](CC(=O)CCC(=O)O)[C@@H](O)C[C@H]1O
quantitative_readout: -8.37
--
compound: Cc1ccc(Cc2nc(-c3cccc(C)c3)no2)cc1
quantitative_readout: 12.9
--
compound: COc1ccccc1Cc1nc(-c2ccc(C)cc2)no1
quantitative_readout: -1.19
--
compound: COc1ccc(OC)c(Nc2nc(-c3ccc(O)c(O)c3)cs2)c1
quantitative_readout: -45.7
--
compound: Cc1cc(C)c(C#N)c(Nc2cccc(Br)c2)n1
quantitative_readout: 6.8
--
compound: CCCn1c2ccccc2c2cnn(CC(=O)NCCCN3CCCCC3CC)c(=O)c21 (stereo unspecified)
quantitative_readout: 4.88
